Species: Rattus norvegicus
Experiment: DrugMatrix - Regimen: Daily Repeat
Assay type: toxicity, organism-based, Sprague-Dawley
Parameters: regimen Daily Repeat, gender Male, age 6-8 weeks
Settings: in vivo, po, 2000 mg/kg, 72 h, tissue Plasma, route oral GAVAGE, dose level High, time 3 day, vehicle .5 % CMC
RECORDED METRIC: CREATINE PHOSPHOKINASE

[
  {
    "MOLECULE": "COc1cc2nc(N3CCN(C(=O)c4ccco4)CC3)nc(N)c2cc1OC",
    "MEASUREMENT": "1224.33 u/L"
  },
  {
    "MOLECULE": "CC1(C)S[C@@H]2[C@H](NC(=O)[C@H](N)c3ccccc3)C(=O)N2[C@H]1C(=O)O",
    "MEASUREMENT": "141 u/L"
  },
  {
    "MOLECULE": "O=C1Nc2ccc(Cl)cc2C(c2ccccc2Cl)=NC1O (stereo unspecified)",
    "MEASUREMENT": "966.67 u/L"
  },
  {
    "MOLECULE": "CN/C(=N/CCSCc1nc[nH]c1C)NC#N",
    "MEASUREMENT": "295 u/L"
  },
  {
    "MOLECULE": "NC1CCN(c2nc3c(cc2F)c(=O)c(C(=O)O)cn3-c2ccc(F)cc2F)C1 (stereo unspecified)",
    "MEASUREMENT": "134.33 u/L"
  },
  {
    "MOLECULE": "CN(C/C=C/C#CC(C)(C)C)Cc1cccc2ccccc12",
    "MEASUREMENT": "122 u/L"
  }
]
